# EC50 (read off the curve) per record follows
test.target: T1, CD79b endogenously expressed on the cell surface (malignant B cell lines, normal B cells in PBMC, CLL … (human, UniProt P40259 29-229))
T1 construct: whole, on cells; On cells CD79b stands in the B-cell receptor complex with CD79a and surface Ig; also called cell surface CD79b; endogenous CD79b
T1 sequence (looked up): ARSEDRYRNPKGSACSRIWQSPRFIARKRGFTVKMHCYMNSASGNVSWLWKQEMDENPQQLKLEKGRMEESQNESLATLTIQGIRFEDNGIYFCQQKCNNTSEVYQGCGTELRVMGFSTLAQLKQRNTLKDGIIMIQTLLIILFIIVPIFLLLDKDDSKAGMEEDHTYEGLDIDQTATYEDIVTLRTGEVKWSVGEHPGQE
assay.text: flow cytometry on a cell line expressing endogenous CD79b (not named on the sheet or in the text); MFI (PE)

1) ch23D8 (antibody, human IgG1, kappa, V domains shown, Rabbit/human chimeric IgG1 kappa; also called chimeric 23D8) VH: QSLEESGGGLVTPGGTLTLTCTVSGLSLSSNAINWVRQAPGKGLEWIGMIYSGGRIEYASWAKGRFTISKTSTTVDLKITSPTTEDTATYFCAKGMSPSAHSSDIWGPGTLVTVSA VL: AYDMTQTPASVEVAVGGTVTIKCQASQSISDNLSWYQQKPGQPPKLLIYDASDLASGVPSRFSGSGSGTEFTLTISDLEPADAATYYCQQDWISSNVDNTFGGGTEVVVKR ... ~0.3 nM

Moving on to another binder below.
Task item: Can you share its EC50 (read off the curve)? I mean this binder: hu48H10 (antibody, V domains shown, Humanized antibody; also called humanized 48H10) VH: EQQLVETGGGLIQPGGSLRLSCAASGFTINIDYWISWVRQAPGKGLEWIGIIDPGDGTTYFAIWVSGRFTISTDNSKNTVYLQMNSLRAEDTAVYFCAREFSASAYQYDLWGPGTLVTVSS VL: ELVMTQSPATLSVSPGERATLSCQASEDIESYLTWYQQKPGQPPRLLMYRASTLSSGVPARFSASGSGTEFTLTISSLQSEDFAVYYCQQGYRNKDVDNPFGGGTKVEIK
Reply: ~0.5 nM

All figures here come from patent US20260209346A1.
